Each recorded value in this set is attributed to PubChem BioAssay (Tox21).

molecular target: Nuclear receptor ROR-gamma (Homo sapiens) (UniProt P51449); experiment: qHTS assay to identify small molecule antagonists of the retinoid-related orphan receptor gamma (ROR-gamma) signaling pathway (AID 1159521; also: nearly all actives have a fitted effect of over 50% in size; also: potency is read from the fitted curve at half-maximal effect); settings: Tet-on RORgamma CHO cells, RORE-luciferase, 16 h; series mostly up to 92.4 µM
Records with an inconclusive call do not appear. Activity calls are given as the source filed them. Calls follow the shape of the dose curve; as a rule, active = well fitted inhibition curve with a large enough effect in the repeat runs; inconclusive = weak or mixed curves, or effect the other way; inactive = no such curve, though single readings can be large or run the other way.
ASSAY_READOUT: Potency

- SMILES_REPRESENTATION: "Cc1cccc(O)c1N"
  VALUE_OBSERVED: "13.8 µM (active)"
- SMILES_REPRESENTATION: "Cc1cc(C)cc(N)c1"
  VALUE_OBSERVED: "inactive"
- SMILES_REPRESENTATION: "Cc1cc(C)c(N)cc1C"
  VALUE_OBSERVED: "inactive"
- SMILES_REPRESENTATION: "Cc1ccco1"
  VALUE_OBSERVED: "inactive"
- SMILES_REPRESENTATION: "CC(C)=CCC1C(=O)N(c2ccccc2)N(c2ccccc2)C1=O"
  VALUE_OBSERVED: "inactive"
- SMILES_REPRESENTATION: "CC(=O)NC1(c2cccc(F)c2)CCN(CC[C@@]2(c3ccc(Cl)c(Cl)c3)CN(c3ccccc3)C(=O)CO2)CC1"
  VALUE_OBSERVED: "38.7 µM (active)"
- SMILES_REPRESENTATION: "CCOC(=O)c1ccc(O)c(O)c1"
  VALUE_OBSERVED: "inactive"

###

Biological target: Estrogen receptor (Homo sapiens)
Test: qHTS assay to identify small molecule antagonists of the estrogen receptor alpha (ER-alpha) signaling pathway (AID 743069); also: potency is read from the fitted curve at half-maximal effect
Details: HEK293 ER-alpha-UAS-bla, beta-lactamase ratio, antagonist mode; series mostly up to 69.4 µM
Source text: National Center for Advancing Translational Sciences [NCATS] NIH Chemical Genomics Center [NCGC] U.S. Environmental Protection Agency [EPA] National Institutes of Environmental Health Sciences [NIEHS] National Toxicology Program [NTP] U.S. Food and Drug Administration [FDA] Estrogen receptor (ER), a nuclear hormone receptor, plays an important role in development, metabolic homeostasis and reproduction. […]
The source made the active and inactive calls. Calls come from the whole dose curve; as a rule, active = well fitted curve in the direction sought with a large enough effect in the signal ratio in the repeat runs (not every such curve was filed as active); inconclusive = weak or mixed curves, or effect the other way; inactive = no such curve, though single readings can be large or run the other way; the % refers to the signal ratio.
ASSAY_READOUT: Potency

- MOLECULE: "CCC(=O)OC"
  SYSTEM_UNDER_TEST: "Estrogen receptor (Homo sapiens)"
  VALUE_OBSERVED: "inactive"
- MOLECULE: "CC[N+](CC)(CCNC(=O)C(=O)NCC[N+](CC)(CC)Cc1ccccc1Cl)Cc1ccccc1Cl"
  SYSTEM_UNDER_TEST: "Estrogen receptor (Homo sapiens)"
  VALUE_OBSERVED: "inactive"
- MOLECULE: "CCCCC(CC)CN (stereo not drawn)"
  SYSTEM_UNDER_TEST: "Estrogen receptor (Homo sapiens)"
  VALUE_OBSERVED: "inactive"
- MOLECULE: "C=C1C[C@@]23CC[C@H]4[C@@](C)(CCC[C@@]4(C)C(=O)O[C@@H]4O[C@H](CO)[C@@H](O)[C@H](O)[C@H]4O)[C@@H]2CC[C@]1(O[C@@H]1O[C@H](CO)[C@@H](O)[C@H](O[C@@H]2O[C@H](CO)[C@@H](O)[C@H](O)[C@H]2O)[C@H]1O[C@@H]1O[C@H](CO)[C@@H](O)[C@H](O)[C@H]1O)C3"
  SYSTEM_UNDER_TEST: "Estrogen receptor (Homo sapiens)"
  VALUE_OBSERVED: "inactive"
- MOLECULE: "C=COCC(C)C"
  SYSTEM_UNDER_TEST: "Estrogen receptor (Homo sapiens)"
  VALUE_OBSERVED: "inactive"
- MOLECULE: "Cc1ccco1"
  SYSTEM_UNDER_TEST: "Estrogen receptor (Homo sapiens)"
  VALUE_OBSERVED: "inactive"
- MOLECULE: "CCOC(C)=O"
  SYSTEM_UNDER_TEST: "Estrogen receptor (Homo sapiens)"
  VALUE_OBSERVED: "inactive"
- MOLECULE: "CN1CC(=O)N2[C@H](c3ccc4c(c3)OCO4)c3[nH]c4ccccc4c3C[C@@H]2C1=O"
  SYSTEM_UNDER_TEST: "Estrogen receptor (Homo sapiens)"
  VALUE_OBSERVED: "inactive"
- MOLECULE: "CCCC(=O)C(=O)O"
  SYSTEM_UNDER_TEST: "Estrogen receptor (Homo sapiens)"
  VALUE_OBSERVED: "inactive"
- MOLECULE: "CC(O)c1ccccc1 (stereo not drawn)"
  SYSTEM_UNDER_TEST: "Estrogen receptor (Homo sapiens)"
  VALUE_OBSERVED: "inactive"
- MOLECULE: "CCN(CC)CCNC(=O)COc1ccc(OC)cc1"
  SYSTEM_UNDER_TEST: "Estrogen receptor (Homo sapiens)"
  VALUE_OBSERVED: "inactive"
- MOLECULE: "C=C1c2cccc(O)c2C(O)=C2C(=O)[C@]3(O)C(O)=C(C(N)=O)C(=O)[C@@H](N(C)C)[C@@H]3[C@@H](O)[C@H]12"
  SYSTEM_UNDER_TEST: "Estrogen receptor (Homo sapiens)"
  VALUE_OBSERVED: "inactive"
- MOLECULE: "CC(CN(C)C)C(C)(O)Cc1ccc(Cl)cc1 (stereo not drawn)"
  SYSTEM_UNDER_TEST: "Estrogen receptor (Homo sapiens)"
  VALUE_OBSERVED: "inactive"
- MOLECULE: "C1C[C@@H]2[C@H]3CC[C@H](C3)[C@@H]2C1"
  SYSTEM_UNDER_TEST: "Estrogen receptor (Homo sapiens)"
  VALUE_OBSERVED: "inactive"
- MOLECULE: "O=C1c2ccccc2C(=O)C1c1ccc(Br)cc1"
  SYSTEM_UNDER_TEST: "Estrogen receptor (Homo sapiens)"
  VALUE_OBSERVED: "inactive"
- MOLECULE: "Nc1cccc2c1CN(C1CCC(=O)NC1=O)C2=O (stereo not drawn)"
  SYSTEM_UNDER_TEST: "Estrogen receptor (Homo sapiens)"
  VALUE_OBSERVED: "inactive"
- MOLECULE: "O=C(O)CCc1nc(-c2ccccc2)c(-c2ccccc2)o1"
  SYSTEM_UNDER_TEST: "Estrogen receptor (Homo sapiens)"
  VALUE_OBSERVED: "inactive"
- MOLECULE: "C[C@@H](CN(C)C)CN1c2ccccc2Sc2ccccc21"
  SYSTEM_UNDER_TEST: "Estrogen receptor (Homo sapiens)"
  VALUE_OBSERVED: "inactive"
- MOLECULE: "CCOC(=O)c1ccccc1C(=C1C=C(Br)C(=O)C(Br)=C1)c1cc(Br)c(O)c(Br)c1"
  SYSTEM_UNDER_TEST: "Estrogen receptor (Homo sapiens)"
  VALUE_OBSERVED: "5.8 µM [inconclusive] (active)"
- MOLECULE: "CC(=O)Nc1cc(S(=O)(=O)O)cc2cc(S(=O)(=O)O)c(N=Nc3ccccc3)c(O)c12"
  SYSTEM_UNDER_TEST: "Estrogen receptor (Homo sapiens)"
  VALUE_OBSERVED: "inactive"
- MOLECULE: "O[C@@H]1CO[C@H]2[C@@H]1OC[C@@H]2O"
  SYSTEM_UNDER_TEST: "Estrogen receptor (Homo sapiens)"
  VALUE_OBSERVED: "inactive"
- MOLECULE: "O=C(O)CCCCCCCCCCCBr"
  SYSTEM_UNDER_TEST: "Estrogen receptor (Homo sapiens)"
  VALUE_OBSERVED: "inactive"
- MOLECULE: "CCCC(C(=O)OCCN(CC)CC)(c1ccccc1)c1ccccc1"
  SYSTEM_UNDER_TEST: "Estrogen receptor (Homo sapiens)"
  VALUE_OBSERVED: "inactive"

###

assay: qHTS assay to identify small molecule HDAC inhibitors (AID 1259364); details: HCT-116 HDAC-Glo I/II luminescence, 2 h; series mostly up to 92.4 µM;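 also: wild-type HCT-116 cells with endogenous class I/II HDAC activity; nearly all actives have a fitted effect of over 45% in size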
Records with an inconclusive call do not appear. Active and inactive are the calls of the source. Calls follow the shape of the dose curve; as a rule, active = well fitted inhibition curve with a large enough effect in the repeat runs; inconclusive = weak or mixed curves; inactive = flat fitted curve, though single readings scatter.
Possible outcomes: TRUE = active, FALSE = inactive

- COMPOUND: "Cc1cscn1"
  GROUP: "FALSE"
- COMPOUND: "CCC1(CO)COCOC1"
  GROUP: "FALSE"
- COMPOUND: "CCOC(C)=O"
  GROUP: "FALSE"
- COMPOUND: "Nc1ccc(N=Nc2ccccc2)c(N)c1"
  GROUP: "TRUE"
- COMPOUND: "CCOC(=O)c1ccc(I)cc1"
  GROUP: "FALSE"
- COMPOUND: "Cc1ccc2c(Br)cc(Br)c(O)c2n1"
  GROUP: "FALSE"
- COMPOUND: "CC(=O)[C@H]1[C@H](C#N)C[C@H]2[C@@H]3CC=C4C[C@@H](O)CC[C@]4(C)[C@H]3CC[C@@]21C"
  GROUP: "FALSE"
- COMPOUND: "O=c1cc(-c2ccccc2)oc2ccc3ccccc3c12"
  GROUP: "TRUE"
- COMPOUND: "CN1CCCC(CC2c3ccccc3Sc3ccccc32)C1 (stereo not drawn)"
  GROUP: "FALSE"
- COMPOUND: "CC1(CN2CCC(n3c(=O)[nH]c4ccccc43)CC2)OCc2ccccc2-n2cccc21 (stereo not drawn)"
  GROUP: "FALSE"
- COMPOUND: "O=C1Cc2cc(Cl)ccc2N1"
  GROUP: "FALSE"
- COMPOUND: "CCCCCC[C@@H](O)C/C=C\\CCCCCCCC(=O)OCC(O)CO (stereo partly drawn)"
  GROUP: "FALSE"
- COMPOUND: "O=C(O)CCc1nc(-c2ccccc2)c(-c2ccccc2)o1"
  GROUP: "FALSE"
